ΔH/ΔG: recorded values
Molecular target: human serum albumin (HSA) (Homo sapiens)
Sequence (P02768 25-609): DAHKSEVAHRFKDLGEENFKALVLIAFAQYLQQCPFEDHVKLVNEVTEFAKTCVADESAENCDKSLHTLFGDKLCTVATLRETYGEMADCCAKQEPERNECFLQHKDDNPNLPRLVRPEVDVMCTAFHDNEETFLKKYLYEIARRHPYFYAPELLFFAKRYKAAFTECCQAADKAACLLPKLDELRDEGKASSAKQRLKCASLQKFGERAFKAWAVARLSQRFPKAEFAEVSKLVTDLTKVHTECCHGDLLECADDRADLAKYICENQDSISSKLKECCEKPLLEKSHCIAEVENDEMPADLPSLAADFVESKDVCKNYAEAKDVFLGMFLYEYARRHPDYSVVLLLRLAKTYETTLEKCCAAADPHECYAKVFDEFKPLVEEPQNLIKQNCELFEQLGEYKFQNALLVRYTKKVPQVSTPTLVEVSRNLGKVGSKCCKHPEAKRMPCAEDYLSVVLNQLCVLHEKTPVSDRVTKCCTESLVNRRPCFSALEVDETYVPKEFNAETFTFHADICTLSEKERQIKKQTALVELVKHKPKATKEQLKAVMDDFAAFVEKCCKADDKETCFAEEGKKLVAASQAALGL
Test: Isothermal titration calorimetry (ITC) of binding of catechins and analogs to HSA
Set-up: purchased Sigma-Aldrich Japan (Tokyo, Japan)
Conditions: Table 1; ITC, 298 K
Protocol: The binding of the catechins and its analogs to HSA was examined in a VP-ITC instrument (Microcal Northampton, MA). […] The data were analyzed with the Origin software (ver. 7) by means of a single-binding-site model. The thermodynamic parameters were obtained from three replicate titrations, where the dilution heats of the ligands were subtracted.
Give your result in % as a bare value.

Take a look at these entries with their results.
O=C(O[C@@H]1Cc2c(O)cc(O)cc2O[C@@H]1c1ccc(O)c(O)c1)c1cc(O)c(O)c(O)c1 [ECg, (−)-epicatechin gallate] ... 63
O=C(O[C@@H]1Cc2c(O)cc(O)cc2O[C@H]1c1ccc(O)c(O)c1)c1cc(O)c(O)c(O)c1 [Cg, (−)-catechin gallate] ... 38
Oc1cc(O)c2c(c1)O[C@@H](c1cc(O)c(O)c(O)c1)[C@H](O)C2 [GC, (−)-gallocatechin] ... 19
O=C(O[C@@H]1Cc2c(O)cc(O)cc2O[C@@H]1c1cc(O)c(O)c(O)c1)c1cc(O)c(O)c(O)c1 [EGCg, (−)-epigallocatechin gallate] ... 61
Oc1cc(O)c2c(c1)O[C@H](c1cc(O)c(O)c(O)c1)[C@H](O)C2 [EGC, (−)-epigallocatechin] ... 10
Oc1cc(O)c2c(c1)O[C@@H](c1ccc(O)c(O)c1)[C@H](O)C2 [C, (+)-catechin] ... 4
CCOC(=O)c1cc(O)c(O)c(O)c1 [EtGa, Ethyl gallate] ... 24
Oc1cc(O)c2c(c1)O[C@H](c1ccc(O)c(O)c1)[C@H](O)C2 [EC, (−)-epicatechin] ... 13

Turning now to a further compound:
## Input # get_value(readout='ΔH/ΔG', item= O=C(O[C@@H]1Cc2c(O)cc(O)cc2O[C@H]1c1cc(O)c(O)c(O)c1)c1cc(O)c(O)c(O)c1 [GCg, (−)-gallocatechin gallate] )
## Output 43
